As shown below, each of these compounds has a reported pIC50 value.
TEST SYSTEM: Recombinant STAT6 protein (STAT6(W123-T658)) (Homo sapiens, UniProt P42226)
Construct: STAT6(W123-T658)
Sequence (P42226 123-658, species assumed): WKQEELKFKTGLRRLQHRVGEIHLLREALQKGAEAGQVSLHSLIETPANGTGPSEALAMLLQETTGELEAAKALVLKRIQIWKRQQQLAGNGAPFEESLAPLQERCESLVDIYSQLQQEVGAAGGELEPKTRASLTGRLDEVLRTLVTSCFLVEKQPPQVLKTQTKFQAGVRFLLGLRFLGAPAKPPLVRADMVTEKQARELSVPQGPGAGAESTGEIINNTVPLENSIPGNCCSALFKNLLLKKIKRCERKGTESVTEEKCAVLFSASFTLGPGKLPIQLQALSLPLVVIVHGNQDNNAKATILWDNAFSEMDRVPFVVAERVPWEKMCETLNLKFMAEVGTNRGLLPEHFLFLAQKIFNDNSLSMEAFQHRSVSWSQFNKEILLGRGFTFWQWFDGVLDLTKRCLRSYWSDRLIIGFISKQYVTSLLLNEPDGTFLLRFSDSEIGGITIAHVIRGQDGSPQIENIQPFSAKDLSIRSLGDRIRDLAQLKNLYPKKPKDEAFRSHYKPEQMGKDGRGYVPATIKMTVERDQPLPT
EXPERIMENT SUMMARY: STAT6 Fluorescence Polarization (FP) Assay
RECORDED CONDITIONS: STAT6(W123-T658) 250 nM, probe 5-FAM-ApYKPFQDLI-NH2 2 nM, 45-minute incubation
pIC50: −log10 of the molar value.

The examples below pair each entry with its known result.
1) O=C(N[C@H]1C[C@H]2C[C@H]2C[C@H]2CC[C@@H](C(=O)N[C@@H]3CCN(c4cccnc4)C3)N2C1=O)c1cc2cc(C(F)(F)P(=O)(O)O)ccc2s1 = 5.52 to 6.52
2) O=C(N[C@H]1C[C@@H]2C[C@@H]2C[C@H]2CC[C@@H](C(=O)N3CC(Cc4ccc(F)cc4)C3)N2C1=O)c1cc2cc(CP(=O)(O)O)ccc2s1 = 4.52 to 5.52
3) O=C(N[C@H]1C[C@@H]2C[C@@H]2C[C@H]2CC[C@@H](C(=O)N[C@H]3CN(c4ncc[nH]4)C[C@@H]3F)N2C1=O)c1cc2cc(C(F)P(=O)(O)O)ccc2s1 (some centres unmarked) = 5.52 to 6.52
4) O=C(N[C@H]1C[C@@H]2C[C@@H]2C[C@H]2CC[C@@H](C(=O)N3CC(c4cnccc4N4CCOCC4)C3)N2C1=O)c1cc2cc([C@H](F)P(=O)(O)O)ccc2s1 (single isomer, unassigned) = 4.52 to 5.52

// below: pIC50 requested for another compound
Query string: Returns the measured pIC50 for the input compound. Input: N#C[C@@H]1CN(C(=O)[C@@H]2CC[C@@H]3C[C@H]4C[C@H]4C[C@H](NC(=O)c4cc5cc(C(F)(F)P(=O)(O)O)ccc5s4)C(=O)N32)C[C@H]1c1ccccc1 (relative stereo)
Result string: ≥ 6.52
